Numbers sourced from patent US20250250357A1.

- SYSTEM_NAME: T1, human MSLN-FL-his protein (human, UniProt Q13421 296-580)
- T1 construct: made in HEK293E cells, purified on nickel column; also called hMSLN-FL-his; human MSLN full-length protein; not shown: His tag
- PROTOCOL_DETAILS: competitive ELISA; coated 2ug/ml Tab108 (R3)
In this section we review reported competition rate values for a set of binders.
Respond numerically; units are % and should not be typed.

The following binders have reported results that may help.
>  <BINDER>
S009-F3.80.22 (antibody, human IgG1, kappa, V domains shown, human-murine chimeric antibody, human IgG1/kappa constant regions) VH: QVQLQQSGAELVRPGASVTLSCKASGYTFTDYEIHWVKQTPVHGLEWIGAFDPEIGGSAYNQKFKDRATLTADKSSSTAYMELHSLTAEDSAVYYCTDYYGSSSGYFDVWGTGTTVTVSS VL: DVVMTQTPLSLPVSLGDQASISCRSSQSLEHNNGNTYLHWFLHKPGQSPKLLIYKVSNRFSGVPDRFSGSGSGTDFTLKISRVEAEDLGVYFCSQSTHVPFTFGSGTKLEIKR

>  <competition rate [%]>
35

$$$$
>  <BINDER>
S009-F3.74.20 (antibody, human IgG1, kappa, V domains shown, human-murine chimeric antibody, human IgG1/kappa constant regions) VH: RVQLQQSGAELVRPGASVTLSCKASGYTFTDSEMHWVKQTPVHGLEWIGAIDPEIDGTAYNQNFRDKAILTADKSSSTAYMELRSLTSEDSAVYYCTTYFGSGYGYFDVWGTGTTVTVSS VL: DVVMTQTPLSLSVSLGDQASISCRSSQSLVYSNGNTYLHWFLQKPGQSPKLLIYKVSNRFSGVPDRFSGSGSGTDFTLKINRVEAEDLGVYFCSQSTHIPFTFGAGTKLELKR

>  <competition rate [%]>
34

$$$$
>  <BINDER>
S009-F4-127.10 (antibody, human IgG1, kappa, V domains shown, human-murine chimeric antibody, human IgG1/kappa constant regions) VH: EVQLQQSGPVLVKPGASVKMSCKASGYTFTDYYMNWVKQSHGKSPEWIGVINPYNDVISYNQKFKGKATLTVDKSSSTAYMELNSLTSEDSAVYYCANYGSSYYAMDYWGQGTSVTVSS VL: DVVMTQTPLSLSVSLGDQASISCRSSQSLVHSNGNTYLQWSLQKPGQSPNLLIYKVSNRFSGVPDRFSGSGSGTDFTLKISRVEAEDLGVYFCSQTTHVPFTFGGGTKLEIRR

>  <competition rate [%]>
-37

$$$$

Would you kindly look at the next entry?
The binder S009-F3.45.21 (antibody, human IgG1, kappa, V domains shown, human-murine chimeric antibody, human IgG1/kappa constant regions) VH: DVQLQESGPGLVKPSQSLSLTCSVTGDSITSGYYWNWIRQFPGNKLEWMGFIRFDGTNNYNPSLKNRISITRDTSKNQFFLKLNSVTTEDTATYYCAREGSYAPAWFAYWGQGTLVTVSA VL: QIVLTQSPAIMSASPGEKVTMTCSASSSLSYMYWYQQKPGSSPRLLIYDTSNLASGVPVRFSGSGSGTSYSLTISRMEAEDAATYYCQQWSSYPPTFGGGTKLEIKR showed competition rate equal to 32
